Source of measurements: ChEMBL document CHEMBL1201862

For each entry below, report its GI50 value.
test system: LXFL 529; assay: NCI tumour cell line growth inhibition, 48 h
The source made the active and inactive calls. Rule as the data show it: active = GI50 up to about 1.1 µM and inactive = higher.

Some entries whose results are on file:
>>> print(df.to_string())
                                   compound  measuredmetric           assayvalue
0  Cc1cccc(C)c1NC(=O)C(=O)C(C#N)c1ccccc1Cl (stereo unspecified)            GI50  > 100 µM (inactive)
1  CN(C)c1nc(N(C)C)n2nc(-c3ccccc3[N+](=O)[O-])nc2n1            GI50   86.3 µM (inactive)
2  COCc1c(CO)cnc(C)c1OC1OC(CO)C(O)C(O)C1O (stereo unspecified)            GI50  > 100 µM (inactive)

Okay, here is my list. What is GI50 for each of these?
1. COc1ccc2[nH]c3c(C)c4c(c(C)c3c2c1)CN(C)CC4
2. COc1cccc2c1CCc1ccccc1CC2=O
3. NC(=O)C(=O)C1CCC2=C(Sc3ccccc3N2)C1=O (stereo unspecified)
4. Cc1ccc(NCC(=O)N2CC(=O)Nc3ccccc32)cc1
5. N[C@H](COCc1ccccc1)c1ccccc1
6. Cc1ccc(S(=O)(=O)Nc2ccccc2C(C)(C)C)cc1
7. Cc1nc(-n2nc(-c3ccccc3)cc2-c2ccccc2)sc1C(=O)CC(=O)C(=O)Nc1ccc(O)cc1
8. COc1cc2ccnc3c2c(c1OC)-c1coc(SC)c1-3

Result:
["17 µM (inactive)", "> 100 µM (inactive)", "> 100 µM (inactive)", "> 100 µM (inactive)", "20.5 µM (inactive)", "24.9 µM (inactive)", "> 100 µM (inactive)", "78.7 µM (inactive)"]
